These entries and their values trace back to PubChem BioAssay (NCI).

- Test system: OVCAR-5 ovarian
- test.description: NCI tumour cell line growth inhibition, 48 h
measured.quantity: TGI

- molecule: "COc1ccc(-n2nc(C)c3c(Nc4ccc(NC(=O)Nc5ccc(Cl)c(C(F)(F)F)c5)cc4)ncnc32)cc1"
  recorded.result: "4.71 µM"
- molecule: "O=S1(=O)C[C@@H](NCc2ccccc2)[C@H](NCc2ccccc2)C1"
  recorded.result: "> 100 µM"
- molecule: "COc1ccc(C(=O)c2nc3ccccc3n2CC(=O)c2ccc(Cl)cc2)cc1"
  recorded.result: "> 100 µM"

// TGI lookup, molecule = O=C1C2=C(CCC2)Nc2cccc3ncn1c23 , result: > 100 µM

// TGI lookup, molecule = COc1ccc(NC(C)c2ccncc2)cc1 (stereo not given) , result: > 100 µM

// TGI lookup, molecule = Nc1nc(Nc2ccccc2)sc1C(=O)c1ccco1 , result: 71.5 µM

// TGI lookup, molecule = Cc1ccc(C)c(N2C(=O)C(=O)C(c3nc4ccccc4s3)C(=Nc3cccc4c(=O)[nH][nH]c(=O)c34)C2=O)c1 (stereo not given) , result: > 100 µM

// TGI lookup, molecule = C/C1=C\CC[C@@](C)(O)[C@@H]2C[C@H](CC/C(C)=C/CC1)C1(CC1)C(=O)O2 , result: > 100 µM

// TGI lookup, molecule = COc1ccc(-c2cnoc2-c2cc(OC)c3c(c2)OCCO3)cc1 , result: > 86.7 µM

// TGI lookup, molecule = Clc1nncc2sc(-c3ccccc3)nc12 , result: > 100 µM

// TGI lookup, molecule = O=C(O)/C=C\C(=O)Nc1ccc(S(=O)(=O)c2ccc(NC(=O)/C=C\C(=O)O)cc2)cc1 , result: > 100 µM

// TGI lookup, molecule = Cc1nc(-c2cccnc2)sc1C(=O)/C=C/c1cccc([N+](=O)[O-])c1 , result: > 100 µM

// TGI lookup, molecule = CCNCCNc1cc(-c2ccc(C#N)cc2)c(C#N)c2nc3ccccc3n12 , result: 18.4 µM

// TGI lookup, molecule = CCOC(OC1=C(C#N)CCCC1)C(CC)[Se]c1ccccc1 (stereo not given) , result: 86.4 µM

// TGI lookup, molecule = O=C(Cl)C1=C(c2ccccc2)C1c1ccccc1 (stereo not given) , result: > 100 µM

* * *

- Test system: HL-60(TB) leukemia
- test.description: NCI tumour cell line growth inhibition, 48 h
Reported TGI values for a set of molecules

Worked set:
- molecule: "COP(=O)(OC)C(Nc1ccc(Cc2ccc(NC(c3ccco3)P(=O)(OC)OC)cc2)cc1)c1ccco1 (stereo not given)"
  TGI: "> 100 µM"
- molecule: "CC1(C)CC(=O)C(CC2C(=O)c3ccccc3C2=O)C(=O)C1"
  TGI: "> 100 µM"
- molecule: "c1ccc(-c2nc(N3CCCNCC3)c3nc(-c4ccccc4)oc3n2)cc1"
  TGI: "3.55 µM"
- molecule: "COc1c(O)c(OC)c2oc(-c3ccc(O)cc3)c(OC)c(=O)c2c1O"
  TGI: "> 100 µM"

Record for COc1ccc(Nc2nccc(N3CCN(c4c5ccc(Cl)cc5nc5ccc(OC)cc45)CC3)n2)cc1 under target or system HL-60(TB) leukemia: TGI reported as > 100 µM

* * *

- System: OVCAR-3 ovarian
- test.description: NCI tumour cell line growth inhibition, 48 h
measured.quantity: GI50

Worked set:
- compound: "O=C(NCCN1CCNCC1)c1ccc(Nc2nc3ccccc3c3occc23)cc1"
  assayed.system: "OVCAR-3 ovarian"
  GI50: "14.5 µM"
- compound: "c1ccc(-c2nc(N3CCCNCC3)c3nc(-c4ccccc4)oc3n2)cc1"
  assayed.system: "OVCAR-3 ovarian"
  GI50: "1.75 µM"
- compound: "COc1cccc2c(=O)c3c(sc12)c(NCCCNCCO)nc1ccccc13"
  assayed.system: "OVCAR-3 ovarian"
  GI50: "1.64 µM"
- compound: "CC(=O)[CH-]C(=O)c1ccccc1.CC(=O)[CH-]C(=O)c1ccccc1.CC1(C)OCC(C2OC3OC(C)(C)OC3C2[O-])O1.CC[O-].[Ti+4] (configuration not stated)"
  assayed.system: "OVCAR-3 ovarian"
  GI50: "11.7 µM"
- compound: "COc1cccc(COc2cc(-n3cnc4ccccc43)sc2C(N)=O)c1"
  assayed.system: "OVCAR-3 ovarian"
  GI50: "5.09 µM"
- compound: "Nc1cc(-c2ccc(Cl)cc2)nn1-c1nnc(/C=C/c2ccco2)c(=O)[nH]1"
  assayed.system: "OVCAR-3 ovarian"
  GI50: "2.16 µM"

Now look at this entry.
// GI50 lookup, compound = CC(=Nc1ccc(S(N)(=O)=O)cc1)c1c(O)[nH]c2ccccc12 , result: > 25 µM

* * *

- Tested on: HCT-116 colon
- test.description: NCI tumour cell line growth inhibition, 48 h
measured.quantity: TGI

- compound: "COc1cccc(COc2cc(-n3cnc4ccccc43)sc2C(N)=O)c1"
  measured.quantity: "TGI"
  recorded.result: "> 25 µM"

// TGI lookup, compound = Cc1ccc2oc(=O)c(-c3ccccc3)nc2c1 , result: > 100 µM

// TGI lookup, compound = O=C1c2cccc(O)c2C(=O)c2c(OC3OC(CO)C(O)C(O)C3O)cccc21 (configuration not stated) , result: 51 µM

* * *

- Tested on: KM20L2 colon
- test.description: NCI tumour cell line growth inhibition, 48 h
Reported TGI values for a set of compounds
Give the number; µM is assumed, so skip it.

// TGI lookup, compound = C=C1C(=O)C23C(O)C1CC[C@H]2C12CCCC(C)(COC(C)=O)[C@H]1[C@H](O)[C@]3(O)OC2 (stereo partly drawn) , result: 3.01

// TGI lookup, compound = CCOC(OC1=C(C#N)CCCC1)C(CC)[Se]c1ccccc1 (stereo not drawn) , result: 62.1

// TGI lookup, compound = CCCCCCCCCCCC1CC(=O)NCCCN(C)CCCCN(C)CCCN1C (stereo not drawn) , result: 3.01

// TGI lookup, compound = O=S1CSSC1 , result: 52.5

* * *

- System: A498 renal
- test.description: NCI tumour cell line growth inhibition, 48 h
measured.quantity: TGI

- molecule: "COc1ccc(C2c3cc4c(cc3OC(NCCO)C2C)OCO4)cc1 (stereo unspecified)"
  TGI: "48.8 µM"
- molecule: "COc1ccc2c(c1)c(=O)c1c(NCCNCCO)ccc3c(=O)n(CCN(C)C)c(=O)n2c31"
  TGI: "0.534 µM"
- molecule: "CC(C)(C)OC(=O)NC1CCCC1=O (stereo unspecified)"
  TGI: "> 100 µM"
- molecule: "CC1(C)N=C2C(=O)c3c([nH]c4ccccc34)[C@]3(C)CCC1CC23 (stereo partly specified)"
  TGI: "> 6.25 µM"
- molecule: "O=C1c2cccc(O)c2C(=O)c2c(OC3OC(CO)C(O)C(O)C3O)cccc21 (stereo unspecified)"
  TGI: "> 100 µM"
- molecule: "COc1ccc(N2C(=O)C3c4[nH]c5ccccc5c4C4CCCCCCCCCC4C3C2=O)cc1 (stereo unspecified)"
  TGI: "> 10 µM"
- molecule: "Cc1c(C(=O)/C=C/c2ccccc2[N+](=O)[O-])[n+](=O)c2ccccc2n1[O-]"
  TGI: "26 µM"
- molecule: "O=C(OCC1OC(n2nc(Cn3nnc(-c4cccnc4)n3)n(-c3cccc4ccccc34)c2=S)C(OC(=O)c2ccccc2)C1OC(=O)c1ccccc1)c1ccccc1 (stereo unspecified)"
  TGI: "> 100 µM"

// TGI lookup, molecule = Cc1cc(C)nc(NS(=O)(=O)c2ccc(NC(=O)c3cccc4c(NNc5ccc(S(=O)(=O)N=C(N)N)cc5)c5ccccc5nc34)cc2)n1 , result: > 50 µM

// TGI lookup, molecule = c1ccc2c(c1)CCCC/C2=N/OCC1CO1 (stereo unspecified) , result: > 100 µM

// TGI lookup, molecule = CC(C)(C)NCC(COc1ccc([N+](=O)[O-])cc1)OP(c1ccccc1)c1ccccc1 (stereo unspecified) , result: > 100 µM

// TGI lookup, molecule = C/C(=N\Nc1nc2ccccc2s1)c1ccc2ccccc2n1 , result: > 100 µM

// TGI lookup, molecule = COc1cccc2c(=O)c3c(sc12)c(NCCCNCCO)nc1ccccc13 , result: 3.3 µM

// TGI lookup, molecule = CC(C)C1=C(O)C2=C(C(=O)C1=O)C1(C)CCCC(C)(C)C1C(O)C2OC=O (stereo unspecified) , result: 35.1 µM

* * *

- Test system: SNB-75 CNS
- test.description: NCI tumour cell line growth inhibition, 48 h
Reported TGI values for a set of molecules

- molecule: "CC(=Nc1ccc(S(N)(=O)=O)cc1)c1c(O)[nH]c2ccccc12"
  assayed.system: "SNB-75 CNS"
  measured.quantity: "TGI"
  recorded.result: "> 25 µM"
- molecule: "COc1cc(C(O)c2ccc3c(c2)OCO3)cc(OC)c1OC (configuration not stated)"
  assayed.system: "SNB-75 CNS"
  measured.quantity: "TGI"
  recorded.result: "> 100 µM"

// TGI lookup, molecule = COC(=O)N1N=C(c2ccccc2)C1c1ccccc1 (configuration not stated) , result: > 100 µM

// TGI lookup, molecule = O=C(O)c1ccccc1C(=O)c1ccc2c(c1)Cc1ccccc1-2 , result: > 100 µM

// TGI lookup, molecule = COc1ccc(-c2c(C3=NCCCN3)nnn2-c2ccc([N+](=O)[O-])cc2)cc1 , result: > 100 µM

// TGI lookup, molecule = O=C(O)CN(CC(=O)O)C(C(=O)O)c1ccccc1 (configuration not stated) , result: > 100 µM

// TGI lookup, molecule = Nc1ccc(-c2nn3c(COc4ccc(Cl)cc4)nnc3s2)cc1 , result: > 100 µM

// TGI lookup, molecule = O=C(O)/C=C\C(=O)Nc1ccc(S(=O)(=O)c2ccc(NC(=O)/C=C\C(=O)O)cc2)cc1 , result: > 100 µM
